Test system: rat platelet
Assay: Inhibitory activity of aggregation in rat platelet
Assay type: cell-based
Conditions: rat platelet rich plasma, arachidonic acid (final concentration 0.5 mM) as inducer; read-out: C: Inhibitory activity of aggregation in rat platelet (IC50; μM)
Counter-ions that a name gives are not always drawn.
measurement.kind: IC50 (µM)

Below, each entry is followed by its recorded IC50 result.
> print(dat)
                                   compound  result.number
1  CSCC[C@@H](NS(=O)(=O)c1ccc(Cl)cc1)C(=O)Nc1ccc(CC(=O)O)cc1           17.1
2  O=C(O)CCCCCCNC(=O)C(COC1CCCCO1)NS(=O)(=O)c1ccc(Cl)cc1 (racemic)           1.75
3  O=C(O)COc1ccc(CCNS(=O)(=O)c2ccc(Cl)cc2)cc1 [Control Compound, reference compound]            1.7
4  O=C(O)CCCCCNC(=O)C(Cn1ccnc1)NS(=O)(=O)c1ccc(Cl)cc1 (racemic) [Example 100, hydrochloride]            1.7
5  O=C(O)Cc1ccc(NC(=O)C(COc2ccccc2Cl)NS(=O)(=O)c2ccc(I)cc2)cc1 (racemic)            1.7

1 = O=C(O)CCc1ccc(NC(=O)C(CC2CCCCC2)NS(=O)(=O)c2ccc(Cl)cc2)cc1 (racemic)
2 = O=C(O)Cc1ccc(NC(=O)C(COc2ccccc2)NS(=O)(=O)c2ccc(I)cc2)cc1 (racemic)
3 = O=C(O)Cc1ccc(NC(=O)C(COc2cccc(Cl)c2)NS(=O)(=O)c2ccc(Br)cc2)cc1 (racemic)
4 = CCSCCC(NS(=O)(=O)c1ccc(Cl)cc1)C(=O)Nc1ccc(CCC(=O)O)cc1 (racemic)
Data request: Ascending sort, IC50. Return value: ordered labels per request.
Data returned: 2, 3, 4, 1

I = O=C(O)Cc1ccc(NC(=O)C(COC2CCCCO2)NS(=O)(=O)c2ccccc2)cc1 (racemic)
II = CSCC[C@H](NS(=O)(=O)c1ccc(Br)cc1)C(=O)Nc1ccc(CC(=O)O)cc1
Data request: Between I and II , which one has the lower reported IC50 value? Refer to your chosen entry by its label in the reply.
Data returned: II
(II: 0.055 µM, I: 1.7 µM)

###

Target: thromboxane A2 (TxA2) receptor (Cavia porcellus, UniProt A0A286Y4I8)
Construct: to obtain washed platelets; from tissue; host or cells: washed platelets of male Hartley guinea pigs
Sequence (A0A286Y4I8 1-347): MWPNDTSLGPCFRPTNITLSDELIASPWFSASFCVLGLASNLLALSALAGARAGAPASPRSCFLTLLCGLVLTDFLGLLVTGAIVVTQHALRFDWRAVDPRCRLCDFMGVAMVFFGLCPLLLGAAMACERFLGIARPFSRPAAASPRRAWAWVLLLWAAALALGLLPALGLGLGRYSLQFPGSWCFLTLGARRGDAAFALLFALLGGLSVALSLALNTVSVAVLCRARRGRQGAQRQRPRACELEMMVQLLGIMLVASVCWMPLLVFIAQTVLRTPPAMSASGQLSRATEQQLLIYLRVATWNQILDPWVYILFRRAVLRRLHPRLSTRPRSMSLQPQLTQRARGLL
Assay: TxA2 antagonist action by binding assay
Conditions: washed guinea pig platelets, 1 nM [3H]-SQ29,548, 45 minutes at 25° C.
Experimental: (1) TxA2 antagonist action by binding assay Guinea pigs (Hartley; male; body weight=approximately 500 g) were anesthetized with ether, and the blood was collected into sodium citrate (final concentration=0.38%). […] The number of platelets was counted by an automatic blood cell counter (Sysmex Microcellcounter F-800) and the sample was diluted with the suspension buffer to 4×10^8 cells/ml. […] IC50 was calculated from (binding)/(control binding) ratio in the presence of an antagonist. […]
measurement.kind: IC50 (µM)

These recorded examples may help you get a feel for the data.
> print(dat)
                                   compound  measurement.kind  result.number
1  O=C(O)Cc1ccc(NC(=O)C(COc2cccnc2)NS(=O)(=O)c2ccc(F)cc2)cc1 (racemic) [Example 123]              IC50              2
2  CSCC[C@@H](NS(=O)(=O)c1ccc(Cl)cc1)C(=O)Nc1ccc(CC(=O)O)cc1 [Example 235]              IC50             22

a = O=C(O)CCc1ccc(NC(=O)C(Cc2ccccc2)NS(=O)(=O)c2ccc(Cl)cc2)cc1 (racemic) [Example 249]
b = O=C(O)Cc1ccc(NC(=O)C(COC2CCCCO2)NS(=O)(=O)c2ccc(Cl)c([N+](=O)[O-])c2)cc1 (racemic) [Example 58]
Data request: # compare IC50 for a vs b ; return the one with the smaller value Give the chosen item's label as your response.
Data returned: a

1 = CCCC[C@@H](NS(=O)(=O)c1ccc(Cl)cc1)C(=O)Nc1ccc(CC(=O)O)cc1 [Example 224]
2 = CCSCC[C@H](NS(=O)(=O)c1ccc(Br)cc1)C(=O)Nc1ccc(CCC(=O)O)cc1 [Example 246]
Data request: // pick min by IC50: 1 , 2 // caller expects the label of the chosen entry
Data returned: 2
(2: 0.034 µM, 1: 48.2 µM)

1 = O=C(O)Cc1ccc(NC(=O)C(COC2CCCCO2)NS(=O)(=O)c2ccccc2)cc1 (racemic) [Example 52]
2 = O=C(O)CCCCCCNC(=O)C(COC1CCCCO1)NS(=O)(=O)c1ccc(Cl)cc1 (racemic) [Example 50]
Data request: Looking at 1 and 2 , which one comes out lower in IC50 terms? Mark your selection by writing its label.
Data returned: 2
(2: 1 µM, 1: 2.2 µM)

1 = O=C(O)COc1ccc(CCNS(=O)(=O)c2ccc(Cl)cc2)cc1 [Control Compound, reference compound]
2 = CCCC[C@H](NS(=O)(=O)c1ccc(Br)cc1)C(=O)Nc1ccc(CCC(=O)O)cc1 [Example 228]
Data request: Could you tell me which of 1 and 2 has the lower IC50 reading? Mark your selection by writing its label.
Data returned: 2
(2: 0.057 µM, 1: 2 µM)

Recorded values, source patent US5650428A.
